FYI, the data here is from patent US20080119488A1.

measurement-target: LXRα or LXRβ
Construct: fused on or other part: N-terminal poly-His tag from the pBacPakhis1 vector
assay: Saturation binding of [3H] 24,25 epoxycholesterol (EC) to the receptor
recorded-conditions: as determined by saturation binding; typical value used for the Cheng and Prusoff equation
measured-endpoint: Kd (nM)

>>> value_observed("C[C@H](CCC1OC1(C)C)[C@H]1CC[C@H]2[C@@H]3CC=C4C[C@@H](O)CC[C@]4(C)[C@H]3CC[C@]12C (stereo partly shown)")
200
